Listing of entries alongside the reported CC50.
test: NOVARTIS: Cytotoxicity against human hepatocellular carcinoma cell line (Huh7); format: toxicity, cell-based, Huh-7; details: Huh7 cells (hepatocellular carcinoma cell line)

Please review the entries below; each comes with its answer.
compound=CC(=O)Nc1cccc(NC(=O)CSc2ccc3nnc(-c4ccc(F)cc4)n3n2)c1 result_type=CC50 observed_measurement="> 10 µM"
compound="CC(C)CCNCC(O)Cn1c2ccc(Br)cc2c2cc(Br)ccc21 (stereo not given)" result_type=CC50 observed_measurement="19 µM"
compound=Cc1cc(C)cc(NC(=O)CCCn2c3ccccc3c(=O)c3cc(C)ccc32)c1 result_type=CC50 observed_measurement="> 100 µM"
compound=Cc1cc2ncn(N=Cc3cccnc3)c2cc1C result_type=CC50 observed_measurement="> 10 µM"
compound=CCOC(=O)c1c(C)n(-c2ccccc2)c2ccc(OC(=O)c3ccco3)cc12 result_type=CC50 observed_measurement="> 100 µM"
compound=O=C(Cn1c2ccccc2c(=O)c2ccccc21)Nc1ccc([N+](=O)[O-])c(Br)c1 result_type=CC50 observed_measurement="> 100 µM"

// lookup CC50 for O=C(c1cc([N+](=O)[O-])cc([N+](=O)[O-])c1)N1CCN(c2cccc(C(F)(F)F)c2)CC1
> 10 µM

Need CC50 of COc1ccc(OC)c(-c2ccc(O)c(CNCCc3cccc(F)c3)c2)c1 , thanks.
> 10 µM

Which CC50 value belongs to CCCC(=O)NC(C(=O)N1CCN(C(c2ccccc2)c2ccccc2)CC1)C(C)C (stereo not given) ?
> 10 µM

Fill blank: measured CC50 of the compound O=C(NC(=S)Nc1ccc([N+](=O)[O-])cc1Cl)c1ccco1 is ____.
> 10 µM
